System: LG0703-F948-PDC complex spheroid viability
Assay: Anticancer human tumor LG0703-F948-PDC patient-derived lung adenocarcinoma cell line growth inhibition [RAS]
Conditions: second compound 0.03 µM; first compound 0.0316 µM; stronger effect = lower value
readoutKind: viability, T/C (%)
Provide only the numeric value, understood in %.

compound	viability, T/C (%)
CC(C)n1nc(-c2ccc3oc(N)nc3c2)c2c(N)ncnc21 + CCn1c(-c2cc(N3CCN(C)CC3)cnc2C(C)OC)c2c3cc(ccc31)-c1csc(n1)CC(NC(=O)C1CC1C)C(=O)N1CCCC(N1)C(=O)OCC(C)(C)C2	2.59
Nc1ccn(C2OC(CO)C(O)C2(F)F)c(=O)n1 (centres undefined) + CCn1c(-c2cccnc2C(C)OC)c2c3cc(ccc31)N1CCOC(CC(NC(=O)C(C(C)C)N(C)C(=O)C3(F)CCN(C(=O)C#CC(C)(C)N(C)C)CC3)C(=O)N3CCCC(N3)C(=O)OCC(C)(C)C2)C1	34
NC1c2ccccc2OC12CCN(c1cnc3c(N4CCCc5ncccc54)n[nH]c3n1)CC2 (centres undefined) + CCn1c(-c2cc(N3CCN(C)CC3)cnc2C(C)OC)c2c3cc(ccc31)-c1csc(n1)CC(NC(=O)C1CC1C)C(=O)N1CCCC(N1)C(=O)OCC(C)(C)C2	8.5

Shift focus to the following entry.
Req: Give a short answer stating reported viability, T/C for CC(C)NCC(C(=O)N1CCN(c2ncnc3c2C(C)CC3O)CC1)c1ccc(Cl)cc1 (centres undefined) + CCn1c(-c2cc(N3CCN(C)CC3)cnc2C(C)OC)c2c3cc(ccc31)-c1csc(n1)CC(NC(=O)C1CC1C)C(=O)N1CCCC(N1)C(=O)OCC(C)(C)C2 .
Resp: 11.7

====

Tested on: LG0703-F948-PDC complex spheroid viability
Test: Anticancer human tumor LG0703-F948-PDC cell line growth inhibition [RAS]; active = viability on the fitted dose curve at most 10% of control; inactive = the rest;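 further: spheroids exposed to agents for 7 days; 100% = DMSO vehicle wells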
Conditions: second compound 0.0949 µM; first compound 10 µM
Form entry, call: pick from active, inactive

Use these answered entries as a reference point.
compound	labelValue
CC(=O)OC12COC1CC(O)C1(C)C(=O)C(O)C3=C(C)C(OC(=O)C(O)C(NC(=O)OC(C)(C)C)c4ccccc4)CC(O)(C(OC(=O)c4ccccc4)C21)C3(C)C (centres undefined) + CCn1c(-c2cc(N3CCN(C)CC3)cnc2C(C)OC)c2c3cc(ccc31)-c1csc(n1)CC(NC(=O)C1CC1C)C(=O)N1CCCC(N1)C(=O)OCC(C)(C)C2	active
C[C@@H](NC(=O)c1ncnc(N)c1Cl)c1ncc(C(=O)Nc2cc(C(F)(F)F)c(Cl)cn2)s1 + CCn1c(-c2cccnc2C(C)OC)c2c3cc(ccc31)N1CCOC(CC(NC(=O)C(C(C)C)N(C)C(=O)C3(F)CCN(C(=O)C#CC(C)(C)N(C)C)CC3)C(=O)N3CCCC(N3)C(=O)OCC(C)(C)C2)C1	inactive
NC1c2ccccc2OC12CCN(c1cnc3c(N4CCCc5ncccc54)n[nH]c3n1)CC2 (centres undefined) + CCn1c(-c2cccnc2C(C)OC)c2c3cc(ccc31)N1CCOC(CC(NC(=O)C(C(C)C)N(C)C(=O)C3(F)CCN(C(=O)C#CC(C)(C)N(C)C)CC3)C(=O)N3CCCC(N3)C(=O)OCC(C)(C)C2)C1	active

// switching to the query compound
Req: What outcome does the record of this test show for C[C@@H](NC(=O)c1ncnc(N)c1Cl)c1ncc(C(=O)Nc2cc(C(F)(F)F)c(Cl)cn2)s1 + CCn1c(-c2cc(N3CCN(C)CC3)cnc2C(C)OC)c2c3cc(ccc31)-c1csc(n1)CC(NC(=O)C1CC1C)C(=O)N1CCCC(N1)C(=O)OCC(C)(C)C2 ?
Resp: inactive

====

Test system: LG0703-F948-PDC complex spheroid viability
Test: Anticancer human tumor LG0703-F948-PDC cell line growth inhibition [RAS];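 further: spheroids exposed to agents for 7 days; 100% = DMSO vehicle wells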
Details: second compound 0.03 µM; first compound 0.00949 µM; stronger effect = lower value
The entries below come with measured viability, T/C values attached.

Req: Return viability, T/C for the following compound: CCc1c2c(nc3ccc(O)cc13)-c1cc3c(c(=O)n1C2)COC(=O)[C@]3(O)CC + CCn1c(-c2cccnc2C(C)OC)c2c3cc(ccc31)N1CCOC(CC(NC(=O)C(C(C)C)N(C)C(=O)C3(F)CCN(C(=O)C#CC(C)(C)N(C)C)CC3)C(=O)N3CCCC(N3)C(=O)OCC(C)(C)C2)C1
Resp: 87.5%

Req: Output viability, T/C of CC1(C)CCC(Nc2ncc(C(F)(F)F)c(-c3c[nH]c4c(P(C)(C)=O)c(C#N)ccc34)n2)CN1 (centres undefined) + CCn1c(-c2cccnc2C(C)OC)c2c3cc(ccc31)N1CCOC(CC(NC(=O)C(C(C)C)N(C)C(=O)C3(F)CCN(C(=O)C#CC(C)(C)N(C)C)CC3)C(=O)N3CCCC(N3)C(=O)OCC(C)(C)C2)C1
Resp: 62.6%

Req: Identify measured viability, T/C corresponding to CC1(C)CCC(Nc2ncc(C(F)(F)F)c(-c3c[nH]c4c(P(C)(C)=O)c(C#N)ccc34)n2)CN1 (centres undefined) + CCn1c(-c2cc(N3CCN(C)CC3)cnc2C(C)OC)c2c3cc(ccc31)-c1csc(n1)CC(NC(=O)C1CC1C)C(=O)N1CCCC(N1)C(=O)OCC(C)(C)C2
Resp: 17.2%

Req: Give the reported value of viability, T/C for this record: CCc1c2c(nc3ccc(O)cc13)-c1cc3c(c(=O)n1C2)COC(=O)[C@]3(O)CC + CCn1c(-c2cc(N3CCN(C)CC3)cnc2C(C)OC)c2c3cc(ccc31)-c1csc(n1)CC(NC(=O)C1CC1C)C(=O)N1CCCC(N1)C(=O)OCC(C)(C)C2
Resp: 13.5%

====

Tested on: LG0703-F948-PDC complex spheroid viability
Experiment: Anticancer human tumor LG0703-F948-PDC cell line growth inhibition [RAS];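 further: spheroids exposed to agents for 7 days; 100% = DMSO vehicle wells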
Conditions: second compound 0.0949 µM; first compound 0.1 µM; stronger effect = lower value
readoutKind: viability, T/C

molecule	viability, T/C
Nc1ccn(C2OC(CO)C(O)C2(F)F)c(=O)n1 (configuration not stated) + CCn1c(-c2cc(N3CCN(C)CC3)cnc2C(C)OC)c2c3cc(ccc31)-c1csc(n1)CC(NC(=O)C1CC1C)C(=O)N1CCCC(N1)C(=O)OCC(C)(C)C2	9.86%

Lab note: next molecule to report on.
Req: Annotate the molecule CC(C)NCC(C(=O)N1CCN(c2ncnc3c2C(C)CC3O)CC1)c1ccc(Cl)cc1 (configuration not stated) + CCn1c(-c2cc(N3CCN(C)CC3)cnc2C(C)OC)c2c3cc(ccc31)-c1csc(n1)CC(NC(=O)C1CC1C)C(=O)N1CCCC(N1)C(=O)OCC(C)(C)C2 with its measured viability, T/C.
Resp: 6.85%

====

System: LG0703-F948-PDC complex spheroid viability
Assay: Anticancer human tumor LG0703-F948-PDC cell line growth inhibition [RAS];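 further: spheroids exposed to agents for 7 days; 100% = DMSO vehicle wells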
Conditions: second compound 0.00949 µM; first compound 0.01 µM; stronger effect = lower value
// viability, T/C lookup, one value per entry
Quick note: give the figure in %, leave out the unit.

molecule	unitDescriptor	result
CCN1CCN(Cc2ccc(Nc3ncc(F)c(-c4cc(F)c5nc(C)n(C(C)C)c5c4)n3)nc2)CC1 + CCn1c(-c2cc(N3CCN(C)CC3)cnc2C(C)OC)c2c3cc(ccc31)-c1csc(n1)CC(NC(=O)C1CC1C)C(=O)N1CCCC(N1)C(=O)OCC(C)(C)C2	%	24.8
C=CC(=O)N1CCN(c2nc(OCC3CCCN3C)nc3c(F)c(-c4nc(N)cc(C)c4C(F)(F)F)c(Cl)cc23)C(C)C1 (centres undefined) + CCn1c(-c2cccnc2C(C)OC)c2c3cc(ccc31)N1CCOC(CC(NC(=O)C(C(C)C)N(C)C(=O)C3(F)CCN(C(=O)C#CC(C)(C)N(C)C)CC3)C(=O)N3CCCC(N3)C(=O)OCC(C)(C)C2)C1	%	95.1
Nc1ccn(C2OC(CO)C(O)C2(F)F)c(=O)n1 (centres undefined) + CCn1c(-c2cccnc2C(C)OC)c2c3cc(ccc31)N1CCOC(CC(NC(=O)C(C(C)C)N(C)C(=O)C3(F)CCN(C(=O)C#CC(C)(C)N(C)C)CC3)C(=O)N3CCCC(N3)C(=O)OCC(C)(C)C2)C1	%	43.2

Req: // output viability, T/C; input C=CC(=O)Nc1cc(Nc2nccc(-c3cn(C)c4ccccc34)n2)c(OC)cc1N(C)CCN(C)C + CCn1c(-c2cccnc2C(C)OC)c2c3cc(ccc31)N1CCOC(CC(NC(=O)C(C(C)C)N(C)C(=O)C3(F)CCN(C(=O)C#CC(C)(C)N(C)C)CC3)C(=O)N3CCCC(N3)C(=O)OCC(C)(C)C2)C1 ; system LG0703-F948-PDC complex spheroid viability
Resp: 55.6

====

Test system: LG0703-F948-PDC complex spheroid viability
Experiment: Anticancer human tumor LG0703-F948-PDC cell line growth inhibition [RAS];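 further: spheroids exposed to agents for 7 days; 100% = DMSO vehicle wells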
Details: second compound 0.316 µM; first compound 0.00316 µM; stronger effect = lower value
Binning scheme for viability, T/C: low: < 70%; medium: ≥ 70% and < 90%; high: ≥ 90%

Example entries begin here.
compound	system	labelValue
O=C(c1ccc(F)c(F)c1Nc1ccc(I)cc1F)N1CC(O)([C@@H]2CCCCN2)C1 + C#Cc1c(F)ccc2cc(O)cc(-c3ncc4c(N5CC6CCC(C5)N6)nc(OCC56CCCN5CC(F)C6)nc4c3F)c12	LG0703-F948-PDC complex spheroid viability	medium
C=CC(=O)Nc1cc(Nc2nccc(-c3cn(C)c4ccccc34)n2)c(OC)cc1N(C)CCN(C)C + C=CC(=O)N1CCN(c2nc(OCC3CCCN3C)nc3c(F)c(-c4nc(N)cc(C)c4C(F)(F)F)c(Cl)cc23)C(C)C1	LG0703-F948-PDC complex spheroid viability	medium
Nc1ccn(C2OC(CO)C(O)C2(F)F)c(=O)n1 (stereo unspecified) + C=CC(=O)N1CCN(c2nc(OCC3CCCN3C)nc3c(F)c(-c4nc(N)cc(C)c4C(F)(F)F)c(Cl)cc23)C(C)C1	LG0703-F948-PDC complex spheroid viability	medium
CC(C)n1nc(-c2ccc3oc(N)nc3c2)c2c(N)ncnc21 + C=CC(=O)N1CCN(c2nc(OCC3CCCN3C)nc3c(F)c(-c4nc(N)cc(C)c4C(F)(F)F)c(Cl)cc23)C(C)C1	LG0703-F948-PDC complex spheroid viability	low
CCN1CCN(Cc2ccc(Nc3ncc(F)c(-c4cc(F)c5nc(C)n(C(C)C)c5c4)n3)nc2)CC1 + C=CC(=O)N1CCN(c2nc(OCC3CCCN3C)nc3c(F)c(-c4nc(N)cc(C)c4C(F)(F)F)c(Cl)cc23)C(C)C1	LG0703-F948-PDC complex spheroid viability	high
CC(C)n1nc(-c2ccc3oc(N)nc3c2)c2c(N)ncnc21 + C#Cc1c(F)ccc2cc(O)cc(-c3ncc4c(N5CC6CCC(C5)N6)nc(OCC56CCCN5CC(F)C6)nc4c3F)c12	LG0703-F948-PDC complex spheroid viability	low
CCN1CCN(Cc2ccc(Nc3ncc(F)c(-c4cc(F)c5nc(C)n(C(C)C)c5c4)n3)nc2)CC1 + C#Cc1c(F)ccc2cc(O)cc(-c3ncc4c(N5CC6CCC(C5)N6)nc(OCC56CCCN5CC(F)C6)nc4c3F)c12	LG0703-F948-PDC complex spheroid viability	high

Next compound, please.
Req: Which class is correct for the following compound? Nc1ccn(C2OC(CO)C(O)C2(F)F)c(=O)n1 (stereo unspecified) + C#Cc1c(F)ccc2cc(O)cc(-c3ncc4c(N5CC6CCC(C5)N6)nc(OCC56CCCN5CC(F)C6)nc4c3F)c12
Resp: low
